Property: MIC; scope: individual compounds
# System: E. faecalis ATCC 29212
# Test summary: MIC, CLSI broth microdilution (Table 1)
# Type: cell-based
# Stated conditions: Enterococcus faecalis, ATCC29212; Gram positive; MHB, 37° C., 16-20 hours; read-out: MIC E. faecalis ATCC 29212
Where a name gives a salt, the structure may show the parent alone.
Quick note: give the figure in µg/mL, leave out the unit.

Compound: Cc1c(-c2ccc(C#N)c(F)c2)ccn2c(=O)c(C(=O)O)cc(C3CC3)c12 [Example 40 K salt]
Value type: MIC
Endpoint value: 0.064
--
Compound: Cc1c(-c2cccc(N)c2)ccn2c(=O)c(C(=O)O)cc(C3CC3)c12 [Example 3 K salt]
Value type: MIC
Endpoint value: 0.064
--
Compound: Cc1c(-c2ccc(F)c(N)c2)ccn2c(=O)c(C(=O)O)cc(C3CC3)c12 [Example 8 K salt]
Value type: MIC
Endpoint value: 0.032

Now, please, on to the next compound.
Request: Which MIC is listed for Cc1c(-c2ccc(NC(N)=O)cc2)ccn2c(=O)c(C(=O)O)cc(C3CC3)c12 [Example 24 K salt] ?
Response: 0.032

---

# Tested on: K. pneumoniae ATCC 33495
# Test summary: MIC, CLSI broth microdilution (Table 2)
# Type: cell-based
# Stated conditions: Klebsiella pneumoniae, ATCC33495; Gram negative; MHB, 37° C., 16-20 hours; read-out: MIC K. pneumoniae ATCC 33495
Structures can show the parent of a compound that is named as a salt.
Value type: MIC (µg/mL)
Provide only the numeric value, understood in µg/mL.

# count of solved cases: 5
Compound: Cc1c(-c2cccnc2)ccn2c(=O)c(C(=O)O)cc(C3CC3)c12 [Example 17 K salt]
Assayed system: K. pneumoniae ATCC 33495
MIC (µg/mL): 0.125
--
Compound: Cc1c(-c2ccc3[nH]ccc3c2)ccn2c(=O)c(C(=O)O)cc(C3CC3)c12 [Example 22 K salt]
Assayed system: K. pneumoniae ATCC 33495
MIC (µg/mL): 0.25
--
Compound: Cc1c(-c2ccc(C(N)=O)cc2)ccn2c(=O)c(C(=O)O)cc(C3CC3)c12 [Example 36 K salt]
Assayed system: K. pneumoniae ATCC 33495
MIC (µg/mL): 0.25
--
Compound: COc1cc(-c2ccn3c(=O)c(C(=O)O)cc(C4CC4)c3c2C)ccc1N [Example 12 K salt]
Assayed system: K. pneumoniae ATCC 33495
MIC (µg/mL): 0.5
--
Compound: Cc1c(-c2cccc(N)c2)ccn2c(=O)c(C(=O)O)cc(C3CC3)c12 [Example 3 K salt]
Assayed system: K. pneumoniae ATCC 33495
MIC (µg/mL): 0.25

Request: Look up MIC for this compound: Cc1c(-c2ccc(F)cc2)ccn2c(=O)c(C(=O)O)cc(C3CC3)c12 [Example 44 K salt]
Response: 0.25

Request: Let us now turn to Cc1c(-c2ccc(NS(C)(=O)=O)cc2)ccn2c(=O)c(C(=O)O)cc(C3CC3)c12 [Example 14 K salt]
Response: 1

---

# System: Francisella tularensis Schu S4
# Test summary: microbe, parasite or virus in culture
# Format: cell-based
# Stated conditions: SCHUS4
Where a name gives a salt, the structure may show the parent alone.
Value type: MIC (µg/mL)
Output spec: scalar in µg/mL, unitless text.

Recorded results for 4 compounds are shown here.
Compound: Cc1c(-c2cccc(N)c2)ccn2c(=O)c(C(=O)O)cc(C3CC3)c12 [Example 3 K salt]
Endpoint value: 0.031
--
Compound: Cc1c(-c2cc(N)cc(F)c2)ccn2c(=O)c(C(=O)O)cc(C3CC3)c12 [Example 9 K salt]
Endpoint value: 0.016
--
Compound: Cc1c(-c2cc(F)c(N)cc2F)ccn2c(=O)c(C(=O)O)cc(C3CC3)c12 [Example 28 K salt]
Endpoint value: 0.008
--
Compound: Cc1c(-c2ccc(F)c(N)c2)ccn2c(=O)c(C(=O)O)cc(C3CC3)c12 [Example 8 K salt]
Endpoint value: 0.031

Request: What value of MIC has been reported for the following compound? Cc1c(-c2ccc(N)nc2)ccn2c(=O)c(C(=O)O)cc(C3CC3)c12 [Example 21 K salt]
Response: 0.031

---

# Tested on: P. aeruginosa ATCC 27853
# Test summary: MIC, CLSI broth microdilution (Table 2)
# Format: cell-based
# Stated conditions: Pseudomonas aeruginosa, ATCC27853; Gram negative; MHB, 37° C., 16-20 hours; read-out: MIC P. aeruginosa ATCC 27853
Where a name gives a salt, the structure may show the parent alone.
# MIC per entry

The examples below pair each entry with its known result.
Molecule: Cc1c(-c2ccc(NC(N)=O)cc2)ccn2c(=O)c(C(=O)O)cc(C3CC3)c12 [Example 24 K salt]
Endpoint value: 8 µg/mL
//
Molecule: Cc1c(-c2ccc(N)cc2F)ccn2c(=O)c(C(=O)O)cc(C3CC3)c12 [Example 7 K salt]
Endpoint value: 4 µg/mL
//
Molecule: Cc1c(-c2ccc(C(N)=O)cc2)ccn2c(=O)c(C(=O)O)cc(C3CC3)c12 [Example 36 K salt]
Endpoint value: 8 µg/mL
//
Molecule: Cc1c(-c2ccc(C#N)c(F)c2)ccn2c(=O)c(C(=O)O)cc(C3CC3)c12 [Example 40 K salt]
Endpoint value: > 8 µg/mL

Request: Requested read-out: MIC. Entry: Cc1c(-c2cccc(F)c2)ccn2c(=O)c(C(=O)O)cc(C3CC3)c12 [Example 10 K salt]
Response: 2 µg/mL

Request: Input Cc1c(-c2ccc3[nH]ccc3c2)ccn2c(=O)c(C(=O)O)cc(C3CC3)c12 [Example 22 K salt]
Response: 4 µg/mL

---

# Test system: E. coli ATCC 25922
# Test summary: MIC, CLSI broth microdilution (Table 2)
# Format: cell-based
# Stated conditions: Escherichia coli, ATCC25922, read-out: MIC E. coli ATCC 25922
Structures can show the parent of a compound that is named as a salt.
MIC values for the molecules below.
Reply numerically in µg/mL, unit not repeated.

Molecule: Cc1c(-c2ccc(N)c(F)c2)ccn2c(=O)c(C(=O)O)cc(C3CC3)c12 [Example 2 K salt]
Measurement unit: µg/mL
MIC: 0.032
--
Molecule: Cc1c(-c2ccc(O)cc2)ccn2c(=O)c(C(=O)O)cc(C3CC3)c12 [Example 46 K salt]
Measurement unit: µg/mL
MIC: 0.032

Request: Query: MIC; subject: Cc1c(-c2ccc(C(N)=O)cc2)c(F)cn2c(=O)c(C(=O)O)cc(C3CC3)c12 [Example 6 K salt]
Response: 0.125

Request: Okay, and Cc1c(-c2ccc(N)cc2)c(F)cn2c(=O)c(C(=O)O)cc(C3CC3)c12 [Example 5 K salt] ?
Response: 0.064

Request: How about this molecule: Cc1c(-c2ccc(CN)cc2)ccn2c(=O)c(C(=O)O)cc(C3CC3)c12 [Example 31 K salt]
Response: 0.032

---

Parameter: MIC. Scope: all listed entries.
# Tested on: H. influenzae ATCC 49247
# Test summary: MIC, CLSI broth microdilution (Table 2)
# Assay type: cell-based
# Stated conditions: Haemophilus influenzae, ATCC49247; Gram negative; MHB, 37° C., 16-20 hours; read-out: MIC H. influenzae ATCC 49247
Where a name gives a salt, the structure may show the parent alone.
Please state the figure in mg/L; there is no need to write the unit.

For orientation, consider the following solved cases.
Molecule: Cc1c(C2=CCNCC2)ccn2c(=O)c(C(=O)O)cc(C3CC3)c12
Measurement unit: mg/L
Endpoint value: 0.064

Molecule: C[C@H]1COc2c(N3CCN(C)CC3)c(F)cc3c(=O)c(C(=O)O)cn1c23
Measurement unit: mg/L
Endpoint value: 0.016

Molecule: COc1cc(-c2ccn3c(=O)c(C(=O)O)cc(C4CC4)c3c2C)ccc1N [Example 12 K salt]
Measurement unit: mg/L
Endpoint value: 0.032

Molecule: Cc1c(-c2cccc(N)c2)c(F)cn2c(=O)c(C(=O)O)cc(C3CC3)c12 [Example 4 K salt]
Measurement unit: mg/L
Endpoint value: 0.008

Next up:
Request: // lookup MIC for Cc1c(-c2ccc(C(N)=O)cc2)ccn2c(=O)c(C(=O)O)cc(C3CC3)c12 [Example 36 K salt]
Response: 0.008

---

# Tested on: S. pneumonia ATCC 49619
# Test summary: MIC, CLSI broth microdilution (Table 1)
# Format: cell-based
# Stated conditions: Streptococcus pneumoniae, ATCC49619; Gram positive; MHB, 37° C., 16-20 hours; read-out: MIC S. pneumonia ATCC 49619
Structures can show the parent of a compound that is named as a salt.
Value type: MIC (µg/mL)
Response body: numeric value in µg/mL, unit text excluded.

Look over these answered cases.
Compound: CC(=O)Nc1ccc(-c2ccn3c(=O)c(C(=O)O)cc(C4CC4)c3c2C)cc1 [Example 13 K salt]
MIC (µg/mL): 0.032
--
Compound: C[C@H]1COc2c(N3CCN(C)CC3)c(F)cc3c(=O)c(C(=O)O)cn1c23
MIC (µg/mL): 0.5
--
Compound: Cc1c(-c2cc(Cl)c(N)c(Cl)c2)ccn2c(=O)c(C(=O)O)cc(C3CC3)c12 [Example 29 K salt]
MIC (µg/mL): 0.064
--
Compound: Cc1c(C2=CCNCC2)ccn2c(=O)c(C(=O)O)cc(C3CC3)c12
MIC (µg/mL): 2
--
Compound: Cc1c(-c2ccc(C(=O)O)cc2)ccn2c(=O)c(C(=O)O)cc(C3CC3)c12 [Example 37 K salt]
MIC (µg/mL): 1

Request: Which measured MIC belongs to Cc1c(-c2cccc(N)c2)ccn2c(=O)c(C(=O)O)cc(C3CC3)c12 [Example 3 K salt] , tested on S. pneumonia ATCC 49619?
Response: 0.25

Request: What do you get for Cc1c(-c2ccc(N)c(Cl)c2)ccn2c(=O)c(C(=O)O)cc(C3CC3)c12 [Example 11 K salt] ?
Response: 0.032

Request: # iterate: Cc1c(-c2ccc(Cl)cc2)ccn2c(=O)c(C(=O)O)cc(C3CC3)c12 [Example 45 K salt]
Response: 0.25

Request: Next: Cc1c(-c2cc(N)cc(F)c2)ccn2c(=O)c(C(=O)O)cc(C3CC3)c12 [Example 9 K salt]
Response: 0.064

Request: Please do the same for Cc1cc(-c2ccn3c(=O)c(C(=O)O)cc(C4CC4)c3c2C)c(Cl)cc1N [Example 30 K salt] as well.
Response: 0.25

Request: Same thing, different compound: COc1cc(-c2ccn3c(=O)c(C(=O)O)cc(C4CC4)c3c2C)ccc1N [Example 12 K salt]
Response: 0.25

The reported numbers originate from patent US20150141435A1.
